# System: U2OS
# ASSAY_INFO: Multiplex assay against U2OS
# Assay type: toxicity, cell-based
# ASSAY_CONTEXT: human, 12 h, 10 µM, compound concentration 10 uM, replicate 1
Listed here: items and their measured Population Apoptotic (%).
Report the figure in % without appending any unit label.

Example entries and their recorded answers appear below.
COc1ncc(-c2ccc3nccc(-c4ccnnc4)c3c2)cc1NS(=O)(=O)c1ccc(F)cc1F = 58
Cc1csc2c(N[C@@H](C)CN3CCN(S(=O)(=O)c4ccc(Cl)c(Cl)c4)CC3)ncnc12 = 53

Reported Population Apoptotic (%) ( Cc1nc(Nc2n[nH]c3c2CN(C(=O)N[C@H](CN(C)C)c2ccccc2)C3(C)C)c2sccc2n1 ) = 53
